Hey, just so you know, these numbers are from patent US20200247894A1.

Consider the following binders and their measured Kd readings.
Target: T1, Human IL2Rγ extracellular domain expressed with a C-terminal mouse IgG2a Fc tag (human)
T1 construct: whole entry is the Fc-fused construct; also called hIL-2Rg-mFc
T1 chain: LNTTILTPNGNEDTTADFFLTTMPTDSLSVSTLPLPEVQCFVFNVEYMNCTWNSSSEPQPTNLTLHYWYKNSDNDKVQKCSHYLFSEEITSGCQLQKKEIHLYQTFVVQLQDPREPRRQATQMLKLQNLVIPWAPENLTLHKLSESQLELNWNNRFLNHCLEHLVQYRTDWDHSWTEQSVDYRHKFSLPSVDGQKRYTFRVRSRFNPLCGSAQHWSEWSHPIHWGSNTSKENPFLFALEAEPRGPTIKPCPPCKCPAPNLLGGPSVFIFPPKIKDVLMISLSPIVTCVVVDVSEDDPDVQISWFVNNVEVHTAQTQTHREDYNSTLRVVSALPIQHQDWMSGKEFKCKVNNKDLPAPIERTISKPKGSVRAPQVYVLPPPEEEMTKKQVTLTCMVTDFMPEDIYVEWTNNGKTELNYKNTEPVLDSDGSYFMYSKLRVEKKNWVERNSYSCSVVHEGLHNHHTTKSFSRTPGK
Assay: SPR Biacore 4000, anti-hFc-captured mAb, 25 C
Please give a number only; it is taken to be in nM.

Field: example entries. Status: answers known.
* H4H12871P (antibody, human IgG4 S228P, kappa, V domains shown, fully human anti-IL2Rgamma mAb, human IgG4 Fc; also called REGN9434) VH: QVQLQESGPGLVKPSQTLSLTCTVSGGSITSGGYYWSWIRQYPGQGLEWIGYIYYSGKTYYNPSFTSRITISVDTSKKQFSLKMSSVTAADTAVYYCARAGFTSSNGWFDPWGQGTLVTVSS VL: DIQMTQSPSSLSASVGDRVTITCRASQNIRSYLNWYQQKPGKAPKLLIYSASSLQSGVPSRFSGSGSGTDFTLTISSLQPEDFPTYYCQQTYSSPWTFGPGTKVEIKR | 0.144
* H4H12863P (antibody, human IgG4 S228P, kappa, V domains shown, fully human anti-IL2Rgamma mAb, human IgG4 Fc) VH: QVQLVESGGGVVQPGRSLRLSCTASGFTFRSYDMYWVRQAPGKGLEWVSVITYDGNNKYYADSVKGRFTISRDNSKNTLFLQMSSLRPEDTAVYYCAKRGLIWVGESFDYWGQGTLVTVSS VL: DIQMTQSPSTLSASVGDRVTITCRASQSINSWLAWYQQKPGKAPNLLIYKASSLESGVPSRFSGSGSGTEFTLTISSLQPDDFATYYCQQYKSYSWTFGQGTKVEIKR | 0.0853

Okay, next one:
Q: Look at this binder and give its reported Kd. H4H12874P (antibody, human IgG4 S228P, kappa, V domains shown, fully human anti-IL2Rgamma mAb, human IgG4 Fc) VH: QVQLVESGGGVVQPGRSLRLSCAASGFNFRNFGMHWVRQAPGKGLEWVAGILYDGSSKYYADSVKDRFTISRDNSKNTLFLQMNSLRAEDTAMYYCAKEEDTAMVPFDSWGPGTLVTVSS VL: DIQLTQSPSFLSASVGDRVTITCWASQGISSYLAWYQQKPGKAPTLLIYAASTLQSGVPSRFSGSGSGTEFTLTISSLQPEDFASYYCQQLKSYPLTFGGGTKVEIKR
Ans: 4.18
